All values here come from patent EP4768485A1.

target: EcFabI (Escherichia coli, UniProt P0AEK4)
Sequence (P0AEK4 whole entry): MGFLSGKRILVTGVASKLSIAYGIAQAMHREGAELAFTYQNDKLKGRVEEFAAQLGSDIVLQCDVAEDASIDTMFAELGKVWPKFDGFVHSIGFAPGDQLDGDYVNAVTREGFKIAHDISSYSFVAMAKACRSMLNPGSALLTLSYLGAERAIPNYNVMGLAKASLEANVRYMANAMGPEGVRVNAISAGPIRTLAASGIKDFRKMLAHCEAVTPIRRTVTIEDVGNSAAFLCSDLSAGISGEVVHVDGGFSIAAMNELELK
Simple rule here: IC50 less than 7 nM is criterion met, otherwise criterion not met.

Cc1c(CN(C)C(=O)/C=C/c2cnc3c(c2)CCC(=O)N3)oc2ccccc12 [Debio-1452, reference compound] : criterion met
Cc1c(CN(C)C(=O)/C=C/c2cnc3c(c2)C2CC2(N)C(=O)N3)oc2c(C)cccc12 (stereo not drawn) [Compound 1b] : criterion met
Cc1c(CN(C)C(=O)/C=C/c2cnc3c(c2)C2CC2(N)C(=O)N3)oc2c(C)cccc12 (stereo not drawn) [Compound 1a] : criterion met
Cc1c(CN(C)C(=O)/C=C/c2cnc3c(c2)C2CC2(N)C(=O)N3)oc2c(C3CC3)cccc12 (single isomer, unassigned) [Compound 2a] : criterion met

Let us examine a further case.
Dear reviewer, please state whether Cc1c(CN(C)C(=O)/C=C/c2cnc3c(c2)C2CC2(N)C(=O)N3)oc2c(C3CC3)cccc12 (single isomer, unassigned) [Compound 2b] has IC50 strictly beneath 7 nM.
criterion not met
